Assay: Drug repurposing screens with cells derived from glioblastoma tumor samples (AID 1345199); also: % is scaled to controls: 0 for no effect and ±100 for the full control effect; nearly all actives have a fitted effect of over 40% in size
Conditions: GBM patient neurospheres viability, ATP luminescence, 48 h; at 45.9 µM (top of the series); tumour line B
Description: CD133+ cells were isolated from GBM patient biopsies and cultured as neurospheres. Neurospheres from four patients were used to screen the NCATS pharmaceutical collection (NPC) library of approved drugs and bioactive compounds. […] The neurospheres were incubated with drugs for 48 hours in 1536-well format, then assayed with an ATP content cell viability assay. […]
Results filed as inconclusive are left out.
Values of activity, negative = cell killing strictly less than -10% map to True, and values of at least -10% map to False.

compound: Cc1ccc(S(=O)(=O)O)cc1C
class-name: False
--
compound: Cc1cc2nc3c(=O)[nH]c(=O)nc-3n(C[C@H](O)[C@H](O)[C@H](O)COP(=O)(O)OP(=O)(O)OC[C@H]3O[C@@H](n4cnc5c(N)ncnc54)[C@H](O)[C@@H]3O)c2cc1C
class-name: True
--
compound: CN(Cc1ccccc1)Cc1ccccc1
class-name: True
--
compound: CN1C(C(=O)Nc2ccccn2)C(=O)c2sc(Cl)cc2S1(=O)=O (stereo not given)
class-name: True
--
compound: CCCCCCCCCCCCCCCC(=O)OC[C@H](COP(=O)([O-])OCC[N+](C)(C)C)OC(=O)CCCCCCCCCCCCCCC
class-name: True

====

assay: qHTS assay to identify small molecule inhibitors of chordoma cells - UCH-2 (AID 1259356); conditions: UCH-2 chordoma viability, CellTiter-Glo ATP luminescence, 48 h; series mostly up to 46.1 µM
Results filed as inconclusive are left out. Calls of active or inactive are those of the source. The call rests on the fitted dose curve; in most records, active means well fitted cell-killing curve with a large enough effect; inconclusive means small, poorly fitted or top-dose-only effect; inactive means flat fitted curve, though single readings scatter.
Outcomes: active, inactive

compound: Cc1c(N)nc([C@H](CC(N)=O)NC[C@H](N)C(N)=O)nc1C(=O)N[C@H](C(=O)N[C@H](C)[C@@H](O)[C@H](C)C(=O)N[C@H](C(=O)NCCc1nc(-c2nc(C(=O)NCCCCN=C(N)N)cs2)cs1)[C@@H](C)O)[C@@H](O[C@@H]1O[C@@H](CO)[C@@H](O)[C@H](O)[C@@H]1O[C@H]1O[C@H](CO)[C@@H](O)[C@H](OC(N)=O)[C@@H]1O)c1cnc[nH]1
class-name: inactive
//
compound: C=CC[N+]1([C@H]2C[C@H]3[C@@H]4CC[C@H]5C[C@H](O)[C@@H](N6CCOCC6)C[C@]5(C)[C@H]4CC[C@]3(C)[C@H]2OC(C)=O)CCCC1
class-name: inactive
//
compound: O=C1CCC(c2ccccc2)(C2CCN(Cc3ccccc3)CC2)C(=O)N1 (stereo unspecified)
class-name: inactive
//
compound: C[N@+]12CCCC[C@@H]1CCC(=C(c1cccs1)c1cccs1)C2
class-name: inactive
//
compound: Cc1c(Cl)cccc1Nc1ncccc1C(=O)O
class-name: inactive
//
compound: CCC(=O)OC(OP(=O)(CCCCc1ccccc1)CC(=O)N1C[C@H](C2CCCCC2)C[C@H]1C(=O)O)C(C)C (stereo partly specified)
class-name: inactive
//
compound: C=C1CC[C@H](O)CC1=C/C=C1\CCC[C@]2(C)[C@@H]([C@H](C)CC[C@@H](O)C(C)(C)O)CC[C@@H]12
class-name: inactive
//
compound: O=C1N=C2SCCN2C(=O)C1Cc1ccc(Cl)cc1 (stereo unspecified)
class-name: inactive
//
compound: CNC(=O)OCc1cccc(COC(=O)NC)n1
class-name: inactive
//
compound: CN[C@@H]1[C@@H](O)[C@@H](O[C@@H]2[C@@H](O)[C@H](OC3OC(CN)=CCC3N)[C@@H](N)C[C@H]2N)OC[C@]1(C)O (stereo partly specified)
class-name: inactive
//
compound: ClC(Cl)Cl
class-name: inactive
//
compound: O=C(CCCN1CCN2CCCC2C1)c1ccc(F)cc1 (stereo unspecified)
class-name: inactive
//
compound: Cc1cccc(C)c1NC(=O)C1CCCCN1C (stereo unspecified)
class-name: inactive
//
compound: Cc1cc(C(=O)NCCc2ccc(S(=O)(=O)NC(=O)NN3CCCCCC3)cc2)no1
class-name: inactive
//
compound: CO[C@@]1(NC(=O)C2SC(=C(C(N)=O)C(=O)O)S2)C(=O)N2C(C(=O)O)=C(CSc3nnnn3C)CS[C@@H]21 (stereo partly specified)
class-name: inactive
//
compound: C[C@H]1O[C@@H](O[C@H]2[C@@H](O)C[C@H](O[C@H]3[C@@H](O)C[C@H](O[C@H]4CC[C@@]5(C)[C@H](CC[C@@H]6[C@@H]5C[C@@H](O)[C@]5(C)[C@@H](C7=CC(=O)OC7)CC[C@]65O)C4)O[C@@H]3C)O[C@@H]2C)C[C@H](O)[C@@H]1O
class-name: active

====

test system: PC26; test: qHTS profiling for inhibitors of Plasmodium falciparum proliferation (AID 504749); also: nearly all actives have a fitted effect of over 60% in size; details: P. falciparum in erythrocytes, SYBR Green DNA, 72 h; series mostly up to 28.7 µM
Records with an inconclusive call do not appear. Active and inactive are the calls of the source. Calls follow the shape of the dose curve; as a rule, active = well fitted inhibition curve with a large enough effect; inconclusive = small, poorly fitted or top-dose-only effect; inactive = flat fitted curve, though single readings scatter.
Outcomes: T for active, F for inactive

compound: OCCCNc1ccccc1
tgt: PC26
class-name: F
--
compound: NC(N)=NCC1COc2ccccc2O1 (stereo not drawn)
tgt: PC26
class-name: F
--
compound: C[C@]12CC[C@@H]3c4ccc(OC(=O)c5ccccc5)cc4CC[C@H]3[C@@H]1CC[C@@H]2O
tgt: PC26
class-name: F
--
compound: CC1=CC(=C(c2ccc(N)cc2)c2ccc(N)cc2)C=CC1=N
tgt: PC26
class-name: T
--
compound: Cc1ncc(C[n+]2csc(CCOP(=O)(O)OP(=O)(O)O)c2C)c(N)n1
tgt: PC26
class-name: F
--
compound: O=C(O)CCC/C=C\C[C@@H]1[C@@H](/C=C/[C@@H](O)COc2cccc(Cl)c2)[C@H](O)C[C@@H]1O
tgt: PC26
class-name: F
--
compound: C=C1C(CCl)(CCl)C2(Cl)C(Cl)C(Cl)C1(Cl)C2(Cl)Cl (stereo not drawn)
tgt: PC26
class-name: T
--
compound: CCCCCc1ccc(C)cc1O
tgt: PC26
class-name: F
--
compound: NC(=O)[C@@H]1CCCN1C(=O)[C@H](Cc1cnc[nH]1)NC(=O)[C@@H]1CCC(=O)N1
tgt: PC26
class-name: F
--
compound: O=C(O)[C@H]1CN(C/C=C/P(=O)(O)O)CCN1
tgt: PC26
class-name: F
--
compound: CC(C)CCCCCCc1ccc(O)cc1
tgt: PC26
class-name: F
--
compound: CC(=O)[C@H]1CC[C@H]2[C@@H]3C=CC4=CC(=O)CC[C@@]4(C)[C@H]3CC[C@]12C
tgt: PC26
class-name: F
--
compound: C[Se]CC[C@H](N)C(=O)O
tgt: PC26
class-name: F
--
compound: CO[C@H]1C[C@@H]2CC[C@@H](C)[C@@](O)(O2)C(=O)C(=O)N2CCCC[C@H]2C(=O)O[C@H]([C@H](C)C[C@@H]2CC[C@@H](OC(=O)C(C)(CO)CO)[C@H](OC)C2)CC(=O)[C@H](C)/C=C(\C)[C@@H](O)[C@@H](OC)C(=O)[C@H](C)C[C@H](C)/C=C/C=C/C=C/1C
tgt: PC26
class-name: F
--
compound: O=C(O)[C@H]1C(=CCO)O[C@H]2CC(=O)N12
tgt: PC26
class-name: F
--
compound: CCCCO
tgt: PC26
class-name: F
--
compound: C=CCN1CCCC1CNC(=O)c1cc(S(N)(=O)=O)cc(OC)c1OC (stereo not drawn)
tgt: PC26
class-name: F
--
compound: CCSc1ccc2c(c1)N(CCCN1CCN(C)CC1)c1ccccc1S2
tgt: PC26
class-name: F
--
compound: CC(C)NCC(O)COc1ccccc1-n1cccc1 (stereo not drawn)
tgt: PC26
class-name: F
--
compound: FC(F)OC(Cl)C(F)(F)F (stereo not drawn)
tgt: PC26
class-name: F
--
compound: O=C(/C=C/c1cccc(F)c1)NC1CC1
tgt: PC26
class-name: F
--
compound: CC/C(=C(/CC)c1ccc(OP(=O)(O)O)cc1)c1ccc(OP(=O)(O)O)cc1
tgt: PC26
class-name: F
--
compound: CCC(O)c1ccccc1 (stereo not drawn)
tgt: PC26
class-name: F

====

Test system: TAB109
Assay: qHTS profiling for inhibitors of Plasmodium falciparum proliferation (AID 504749); also: nearly all actives have a fitted effect of over 60% in size
Details: P. falciparum in erythrocytes, SYBR Green DNA, 72 h; series mostly up to 28.7 µM
Method: NIH National Institute of Allergy and Infectious Diseases [NIAID] NIH Chemical Genomics Center [NCGC] […] Because mature erythrocytes lack DNA, only Plasmodium-derived DNA is detected. NCGC Assay Protocol Summary: The SYBR Green viability assay was adapted from a method described previously (Plouffe et al., 2008). […] The following morning, fluorescence intensity at 485(14) nm excitation and 535(25) nm emission wavelengths was measured on an EnVision (Perkin Elmer) plate reader. […]
Inconclusive results are not listed. Activity calls are given as the source filed them. The call rests on the fitted dose curve; in most records, active means well fitted inhibition curve with a large enough effect; inconclusive means small, poorly fitted or top-dose-only effect; inactive means flat fitted curve, though single readings scatter.
Outcomes: 1 (active), -1 (inactive)

compound: Cc1cc(-c2ccc(N=Nc3ccc4c(S(=O)(=O)O)cc(S(=O)(=O)O)c(N)c4c3O)c(C)c2)ccc1N=Nc1ccc2c(S(=O)(=O)O)cc(S(=O)(=O)O)c(N)c2c1O
class-name: -1

compound: CC1CC(O)CC(C)(C)C1 (stereo unspecified)
class-name: -1

compound: O=C(CCCCCCCCCCCCC1CCCC1)Nc1ccc(S(=O)(=O)c2ccc(NC(=O)CCCCCCCCCCCCC3CCCC3)cc2)cc1
class-name: -1

compound: CCCCC(CC)CCC(CC(C)C)OS(=O)(=O)O (stereo unspecified)
class-name: -1

compound: COc1ccc2nc(NC(=O)Nc3ccccc3)sc2c1
class-name: -1

compound: Nc1ncnc2c1ncn2[C@H]1CC[C@@H](CO)O1
class-name: -1

compound: S=C1SCN(Cc2ccccc2)CN1Cc1ccccc1
class-name: -1

compound: CC(C)CCCCCCc1ccc(O)cc1
class-name: -1

compound: CN(CCO)CC(O)Cn1cnc2c1c(=O)n(C)c(=O)n2C (stereo unspecified) (tested in a mixture with another compound)
class-name: -1

compound: O=C(O)c1cc(N=Nc2ccc(O)c(C(=O)O)c2)ccc1O
class-name: -1

compound: CC1=CC(=C(c2ccc(N)cc2)c2ccc(N)cc2)C=CC1=N
class-name: 1

compound: CCC(C)[C@@H](N)C(=O)O (stereo partly specified)
class-name: -1

compound: CC(C)(COP(=O)(O)OP(=O)(O)OC[C@H]1O[C@@H](n2cnc3c(N)ncnc32)[C@H](O)[C@@H]1OP(=O)(O)O)C(O)C(=O)NCCC(=O)NCCS (stereo partly specified)
class-name: -1

compound: CS(=O)(=O)c1ccc([C@@H](O)[C@@H](COC(=O)CN)NC(=O)C(Cl)Cl)cc1
class-name: 1

compound: C=CC(C)(O)CC/C=C(\C)CCC=C(C)C (stereo unspecified)
class-name: -1

compound: O=[n+]1ccn([O-])c2ccccc21
class-name: -1

compound: O=C(OCc1ccccc1)c1cccnc1
class-name: -1

compound: C(=C\c1ccncc1)/c1ccccc1
class-name: -1

compound: CCN(CC)CCOc1ccccc1OC
class-name: -1

compound: c1ccc2c(c1)OCC(CN1CCCCC1)O2 (stereo unspecified)
class-name: -1

compound: C/C(=C\C(=O)OCCCCCCCCC(=O)O)C[C@@H]1OC[C@H](C[C@@H]2O[C@H]2[C@@H](C)[C@H](C)O)[C@@H](O)[C@H]1O
class-name: 1

compound: CC(=O)Oc1cccc2c1C(=O)c1c(OC(C)=O)cc(C(=O)O)cc1C2=O
class-name: -1

compound: O=[N+]([O-])c1c(Cl)cccc1-c1c[nH]cc1Cl
class-name: -1

compound: Cc1ncc(COP(=O)(O)O)c(CN)c1O
class-name: -1

compound: CC(=O)Oc1cc(C(F)(F)F)ccc1C(=O)O
class-name: -1

compound: CSc1nc2cc(Oc3cccc(Cl)c3Cl)c(Cl)cc2[nH]1
class-name: 1

compound: CC1C(=O)CC2C3(C)CCC2(C(C)C(=O)O)C(=O)C13 (stereo unspecified)
class-name: -1

compound: O=C1CCC(=O)N1CO
class-name: -1

compound: O=P(O)(O)O
class-name: -1

compound: CCCCCc1ccc(C)cc1O
class-name: -1

compound: O=C(O)CCC/C=C\C[C@@H]1[C@@H](/C=C/[C@@H](O)COc2cccc(C(F)(F)F)c2)[C@H](O)C[C@@H]1O
class-name: -1

compound: Oc1cc(O)cc(O)c1
class-name: -1

compound: CCOC(=O)Cc1ccc(-c2ccccc2)cc1
class-name: -1

compound: CCCc1nc(C(C)(C)O)c(C(=O)OCc2oc(=O)oc2C)n1Cc1ccc(-c2ccccc2-c2nn[nH]n2)cc1
class-name: -1

compound: O=P(O)(O)CP(=O)(O)O
class-name: -1

compound: CC(C)OC(=O)Nc1ccc2nc(-c3cscn3)[nH]c2c1
class-name: -1

compound: NC(=O)C1c2ccccc2CCc2ccccc21
class-name: -1

compound: F[Si-2](F)(F)(F)(F)F
class-name: -1

compound: O=C(O)/C=C/c1ccccc1
class-name: -1

compound: O=C(O)c1ccc(OCCn2ccnc2)cc1
class-name: -1

compound: OB(O)O
class-name: -1

compound: NC(=O)[C@@H]1CCCN1C(=O)[C@H](Cc1cnc[nH]1)NC(=O)[C@@H]1CCC(=O)N1
class-name: -1

compound: CCCCCCCCCCCCCC(=O)OCC(COP(=O)([O-])OCC[N+](C)(C)C)OC(=O)CCCCCCCCCCCCC (stereo unspecified)
class-name: -1

compound: COc1ccc(/C=C/C(=O)OCCC(C)C)cc1
class-name: -1

compound: CC(C)(C)CC(C)(C)c1cc(Cc2cc(C(C)(C)CC(C)(C)C)cc(-n3nc4ccccc4n3)c2O)c(O)c(-n2nc3ccccc3n2)c1
class-name: -1

compound: CCOC(=O)C1=C(COCCN)NC(C)=C(C(=O)OC)C1c1ccccc1Cl (stereo unspecified)
class-name: -1
